Overview of reported AUC across a group of compounds:
Assay: Pharmacokinetics in male SD rats (cassette dosing, IV and PO), plasma level by LC/MS/MS
Format: in vivo
Settings: male SD rat, IV 1 mg/kg, read-out: IV AUC
Protocol: Male SD rats were fasted overnight. Compounds of the invention were dissolved in dimethyl acetamide at 10 times the final concentration, then Solutol HS 15 (BASF) was added to a final concentration of 10%. […] The plasma was extracted with acetonitrile and the level of compound was analyzed by LC/MS/MS. The level of compound in plasma was calculated from a standard curve in rat plasma. The IV clearance (L/h/kg) and area under the curve (h*ng/mL) were calculated using WinNonLin software. […]

COMPOUND | MEASURED PROPERTY | MEAS VALUE
CN1C(=O)Cc2cc(C(=O)Nc3cc(-c4cccs4)ccc3N)ccc21 [Compound 001] | AUC | 40000 to 40200 ng·h/mL
Nc1ccc(-c2cccs2)cc1NC(=O)c1ccc2c(c1)CC(=O)N2 [Compound 004] | AUC | 10600 to 10800 ng·h/mL
Nc1ccc(-c2cccs2)cc1NC(=O)c1ccc2c(c1)CC(=O)N2CC1CC1 [Compound 011] | AUC | 2000 to 2100 ng·h/mL
COCCN(C)c1ccc2cc(C(=O)Nc3cc(-c4cccs4)ccc3N)cnc2c1 [Compound 030] | AUC | 1 to 5 ng·h/mL
Nc1ccc(-c2cccs2)cc1NC(=O)c1ccc2[nH]cnc2c1 [Compound 018] | AUC | 19600 to 19800 ng·h/mL
CN(C)CCNc1ccc2cc(C(=O)Nc3cc(-c4cccs4)ccc3N)cnc2c1 [Compound 025] | AUC | 15 to 20 ng·h/mL

**Q:** Could you tell me which AUC is on file for CN1CCN(c2ccc3cc(C(=O)Nc4cc(-c5cccs5)ccc4N)cnc3c2)CC1 [Compound 032] ?
**A:** < 15 ng·h/mL

**Q:** Tell me the measured AUC of Nc1ccc(-c2ccccc2)cc1NC(=O)c1ccc2c(c1)CC(=O)N2CC1CC1 [Compound 002] , please.
**A:** 6500 to 6600 ng·h/mL

* * *

Test: Pharmacokinetics in male SD rats (cassette dosing, IV and PO), plasma level by LC/MS/MS
Format: in vivo
Settings: male SD rat, IV 1 mg/kg
Description: Male SD rats were fasted overnight. Compounds of the invention were dissolved in dimethyl acetamide at 10 times the final concentration, then Solutol HS 15 (BASF) was added to a final concentration of 10%. […] The plasma was extracted with acetonitrile and the level of compound was analyzed by LC/MS/MS. The level of compound in plasma was calculated from a standard curve in rat plasma. The IV clearance (L/h/kg) and area under the curve (h*ng/mL) were calculated using WinNonLin software. […]
MEASURED PROPERTY: IV clearance

COMPOUND | IV clearance
Nc1ccc(-c2ccccc2)cc1NC(=O)c1ccc2c(c1)CC(=O)N2CCN1CCOCC1 [Compound 013] | 1.67 to 16.7 mL/min/kg
Nc1ccc(-c2cccs2)cc1NC(=O)c1ccc2c(c1)CC(=O)N2CCN1CCOCC1 [Compound 003] | 1.67 to 16.7 mL/min/kg
Nc1ccc(-c2cccs2)cc1NC(=O)c1ccc2c(c1)ncn2CCN1CCOCC1 [Compound 021] | 1.67 to 16.7 mL/min/kg
CN1C(=O)Cc2cc(C(=O)Nc3cc(-c4ccccc4)ccc3N)ccc21 [Compound 012] | 0.167 to 8.33 mL/min/kg
Nc1ccc(-c2cccs2)cc1NC(=O)c1ccc2[nH]cnc2c1 [Compound 018] | 0.167 to 8.33 mL/min/kg

**Q:** Reported IV clearance, compound Nc1ccc(-c2cccs2)cc1NC(=O)c1ccc2[nH]c(C3CC3)nc2c1 [Compound 009] : ____
**A:** 0.167 to 8.33 mL/min/kg

**Q:** Quick one: IV clearance for Nc1ccc(-c2cccs2)cc1NC(=O)c1ccc2c(c1)CC(=O)N2 [Compound 004] ?
**A:** 0.167 to 8.33 mL/min/kg

**Q:** Which IV clearance reading was recorded for the compound Nc1ccc(-c2cccs2)cc1NC(=O)c1ccc2c(c1)CC(=O)N2CC1CC1 [Compound 011] ?
**A:** 1.67 to 16.7 mL/min/kg

**Q:** Could you tell me which IV clearance is on file for Nc1ccc(-c2ccccc2)cc1NC(=O)c1ccc2c(c1)CC(=O)N2CC1CC1 [Compound 002] ?
**A:** 0.167 to 8.33 mL/min/kg
